Exercise: for every item that follows, state its recorded viability.
# ASSAY_NAME: drug combination growth inhibition, ovarian cancer – cell-based, oncology-focused library, rucaparib conditional, profiling panel (AID 1508598)
# CONDITION_DESCRIPTION: patient-derived ovarian cancer cells, CellTiter-Glo viability, 144 h; at 0.00122 µM; OCI-C5x cells; without rucaparib; hits give low values
Give bare numbers, in %.

QUERY_SMILES | UNITS_SYMBOL | viability
Nc1ccccc1NC(=O)c1ccc(CNc2nccc(-c3cccnc3)n2)cc1 | % | 110
COCCOc1nc(-c2ccc(Cl)c(Cl)c2)n(-c2ccc(NC(=O)CCl)cc2)n1 | % | 104

Data request: Which viability reading was recorded for the compound Cn1cc(-c2ccc3nnc(C(F)(F)c4ccc5ncccc5c4)n3n2)cn1 ?
Data returned: 106
